- Test system: MDA-N
- METHOD SUMMARY: NCI tumour cell line growth inhibition, 48 h
Calls of active or inactive are those of the source. Cut-off read from the data, not from the text of the source: active = GI50 up to about 1.1 µM and inactive = higher.
This listing pairs compounds with measured GI50.

As a guide, the following entries are already answered.
COMPOUND: COc1ccc(/C=C/C(=O)CC(=O)/C=C/c2ccc(OC)cc2)cc1
GI50: 20.7 µM (inactive)
//
COMPOUND: CC(C)N/C(=N\C#N)NS(=O)(=O)c1cnccc1NC1CCCCCCC1
GI50: > 100 µM (inactive)
//
COMPOUND: NC(=S)NN=Cc1ccccc1OCc1cccc(COc2ccccc2C=NNC(N)=S)n1
GI50: > 100 µM (inactive)
//
COMPOUND: CC(NC(=O)Cc1ccc(OP(=O)(OCc2ccc([N+](=O)[O-])o2)N(C)CCCCCl)cc1)c1ccc(OCC2CCCCC2)c(C(N)=O)c1 (stereo unspecified)
GI50: 1.88 µM (inactive)
//
COMPOUND: O=c1[nH]nc(-c2ccccc2)n1/N=C/c1ccc([N+](=O)[O-])cc1
GI50: > 100 µM (inactive)

Now for the compound whose GI50 we want.
Exam item: // returns reported GI50 for input `CC1=CC(=O)/C(=C/Nc2nc(-c3ccc([N+](=O)[O-])cc3)cs2)C(=O)O1`
Marked response: > 100 µM (inactive)

* * *

- Test system: NCI-H460
- METHOD SUMMARY: NCI tumour cell line growth inhibition, 48 h
Active and inactive are the calls of the source. Cut-off read from the data, not from the text of the source: active = GI50 up to about 1.1 µM and inactive = higher.
Some molecules, each annotated with its measured GI50.

Consider the reported GI50 for these molecules:
MOLECULE: CC(C)c1ccccc1SCc1cc(=O)cc(CSc2ccccc2C(C)C)o1
GI50: 21.1 µM (inactive)
//
MOLECULE: C[C@]12CCC[C@H](OC=O)C1(O)C[C@H](C(=O)O)CC2 (stereo partly drawn)
GI50: > 100 µM (inactive)

Exam item: Which GI50 value belongs to CC(NC(=O)C(Cc1ccc(OC(=O)c2ccccc2)cc1)NC(=O)OC(C)(C)C)C(=O)NCC(=O)NC(Cc1ccccc1)C(=O)NN (stereo not drawn) ?
Marked response: 49.2 µM (inactive)

* * *

- Test system: SF-295
- METHOD SUMMARY: NCI tumour cell line growth inhibition, 48 h
Activity calls are given as the source filed them. Cut-off read from the data, not from the text of the source: active = GI50 up to about 1.1 µM and inactive = higher.
Field 'call' accepts True = active, False = inactive

Examples with answers:
COMPOUND: COc1ccc(S(=O)(=O)NNS(C)(=O)=O)cc1
ASSIGNED CLASS: False
--
COMPOUND: O=C(O)c1ccccc1/C=N/N=C1c2ccccc2-c2ccccc21
ASSIGNED CLASS: False
--
COMPOUND: N#CC(C(=O)CCC(=O)Nc1cccc(Cl)c1)c1ccccc1 (centres undefined)
ASSIGNED CLASS: False
--
COMPOUND: COCCOC1=CC(=O)c2c(O)ccc(O)c2C1=O
ASSIGNED CLASS: False
--
COMPOUND: CCC(C)C(N)C(=O)N/N=C\c1c2c(nc3ccccc13)-c1cc3c(c(=O)n1C2)COC(=O)[C@]3(O)CC (some centres undefined)
ASSIGNED CLASS: True

Exam item: Please indicate how the test categorized `N[C@H]1CCN(c2c(F)cc3c(=O)c(C(=O)O)cn4c3c2Oc2c-4ccc3c2ccc2ccccc23)C1` .
Marked response: False

Exam item: # outcome recorded in this test, key = `CC(C)NC(=O)OCc1c(COC(=O)NC(C)C)c(-c2cc[n+](COC(=O)C(C)C)cc2)n2c1CCC2`
Marked response: False

Exam item: Would you mind telling me which call this test gave COc1ccc(/C=C2\CCC(CNc3ccc(S(N)(=O)=O)cc3)C2=O)cc1 (centres undefined) ?
Marked response: False

Exam item: How did this test come out for `COc1cc2c(oc(=O)c3c4occc4cc(OC)c23)c2cccc(OCc3ccccc3)c12` ?
Marked response: False

* * *

- System: MDA-N
- METHOD SUMMARY: NCI tumour cell line growth inhibition, 48 h
Active and inactive are the calls of the source. Cut-off read from the data, not from the text of the source: active = GI50 up to about 1.1 µM and inactive = higher.
Your reply should match one of these outcome classes. t for active, f for inactive

The following molecules have reported results that may help.
MOLECULE: O=c1oc2c(Br)c(O)c(Br)cc2c2ccccc12
ASSIGNED CLASS: f

MOLECULE: [N-]=[N+]=Nc1c(Cl)c(=O)n(-c2ccccc2)c2ccccc12
ASSIGNED CLASS: f

MOLECULE: COc1ccc(-n2c(C)nc3ccc(NC4OCC(OC(C)=O)C(OC(C)=O)C4OC(C)=O)cc3c2=O)cc1 (centres undefined)
ASSIGNED CLASS: f

Exam item: Recorded test call requested for `Cc1cccc(-c2cc(O)c3c(C)cc(C)nc3n2)c1`
Marked response: t

Exam item: Would you mind telling me which call this test gave `Cc1ccc2[nH]c3[nH]c(=S)[nH]c(=O)c3c2c1` ?
Marked response: f

Exam item: Tell me the recorded outcome of this test for `CSC1=C(C)C(/C=N/Nc2ccc([N+](=O)[O-])cc2)=C(C)N(c2ccccc2)S1(=O)=O` .
Marked response: f

* * *

- System: DU-145
- METHOD SUMMARY: NCI tumour cell line growth inhibition, 48 h
Active and inactive are the calls of the source. Cut-off read from the data, not from the text of the source: active = GI50 up to about 1.1 µM and inactive = higher.
MEASURE: GI50

Some compounds with known GI50 results, for comparison:
COMPOUND: COC(=O)C1=C(OC(=O)/C=C/c2ccc(Cl)cc2)C(C(=O)OC)[C@@]2(O)[C@@H](C(=O)OC)[C@H](C)C[C@@H]1[C@@H]2C(=O)OC (stereo partly drawn)
MEASURE: GI50
MEASUREMENT: 39.4 µM (inactive)
--
COMPOUND: CSCCCN(CCCSC)CCCSC
MEASURE: GI50
MEASUREMENT: > 100 µM (inactive)
--
COMPOUND: O=C(/C=C\Nc1ccccc1O)C(F)(F)F
MEASURE: GI50
MEASUREMENT: > 100 µM (inactive)
--
COMPOUND: O=S(=O)(O)c1ccc(/N=N/c2ccc(/N=N/c3c(O)ccc4ccccc34)cc2)cc1
MEASURE: GI50
MEASUREMENT: > 89.3 µM (inactive)

Exam item: Returns the measured GI50 for the input compound. Input: `CN(C)C(=S)SCC(=O)Nc1ccccc1`
Marked response: > 100 µM (inactive)

Exam item: Consider the compound shown here: Cc1nn(-c2ccccc2)c2c1C(c1cc3ccccc3nc1Cl)NC(=S)N2 (stereo not drawn) What is its recorded GI50?
Marked response: > 100 µM (inactive)

Exam item: I would be grateful if you could share the reported GI50 for `O=C1C=CC(=C(c2ccccc2)c2ccc(O)cc2)C=C1` .
Marked response: 17.4 µM (inactive)

Exam item: Param item = `COc1ccc(-c2c(CN3CCOCC3)sc3nc4ccccc4n23)cc1` ; retrieve measured GI50.
Marked response: 28.2 µM (inactive)

Exam item: What does the data say about its GI50? Entry: `c1cc2nnc1SCCSCCSc1ccc(nn1)SCCSCCS2`
Marked response: > 100 µM (inactive)

* * *

- System: SN12C
- METHOD SUMMARY: NCI tumour cell line growth inhibition, 48 h
Activity calls are given as the source filed them. Cut-off read from the data, not from the text of the source: active = GI50 up to about 1.1 µM and inactive = higher.
MEASURE: GI50

Check out these entries, answers already filled in.
MOLECULE: Cc1ccc(S(=O)(=O)c2ccc(NC(=O)SCCC(=O)O)cc2)cc1
MEASUREMENT: > 100 µM (inactive)
--
MOLECULE: Cc1ccc(O)c(-c2cc(-c3cccc(Br)c3)on2)c1
MEASUREMENT: 23.8 µM (inactive)
--
MOLECULE: CCN(CC)c1ccc2cc(C(N)=S)c(=N)oc2c1
MEASUREMENT: > 100 µM (inactive)
--
MOLECULE: O=C1CCC(=O)N1Sc1ccccc1
MEASUREMENT: > 100 µM (inactive)
--
MOLECULE: COc1cc2c(cc1OC)C1c3ccccc3CCN1CCC2.[O-][Cl+3]([O-])([O-])O (stereo not drawn)
MEASUREMENT: > 100 µM (inactive)
--
MOLECULE: CCOC(=O)c1c(N=P(c2ccccc2)(c2ccccc2)c2ccccc2)nnc(-c2ccccc2)c1-c1ccccc1
MEASUREMENT: > 100 µM (inactive)
--
MOLECULE: CC1=NN(c2cccc(Cl)c2)C2(C1)SCC(=O)N2c1nc2ccccc2s1 (stereo not drawn)
MEASUREMENT: 22.1 µM (inactive)
--
MOLECULE: CSc1c(C#N)c(O)nc(N)c1C(=O)Nc1ccc(C)cc1
MEASUREMENT: > 100 µM (inactive)

Exam item: Item under review: `COC(=O)c1cc(C(=O)OC)cc(-c2ccc3c(c2)-c2nc4c(c(-c5ccc(OC)cc5)c2CC3)CCc2ccc(-c3cc(C(=O)OC)cc(C(=O)OC)c3)cc2-4)c1` . Reported GI50?
Marked response: > 100 µM (inactive)

Exam item: Would you mind telling me what GI50 value was observed for Cc1ccc([N+](=O)[O-])c2c(NCC(O)CO)ccnc12 (stereo not drawn) ?
Marked response: 75.3 µM (inactive)

Exam item: Fill in the blank: the reported GI50 of `C[C@]12CCC(=O)C=C1CC[C@@H]1[C@@H]2CC[C@]2(C)C(=O)/C(=C\c3ccccc3)C[C@@H]12` is ____.
Marked response: 15.1 µM (inactive)

Exam item: What value of GI50 has been reported for the following molecule? `O=[N+]([O-])C(=C1Nc2ccccc2N1)/C(Cl)=C(/Cl)N1CCOCC1`
Marked response: > 100 µM (inactive)

Exam item: Which measured GI50 value corresponds to `CN(C)c1ccc(N2C(=S)SC(=N\c3ccccc3)/C2=N/c2ccccc2)cc1` ?
Marked response: > 100 µM (inactive)
